- TARGET DESC: binding partner of C5A (XPA23)
- TEST METHOD NOTES: Biacore, mutant vs original C5A (XPA23)
MEASURED ATTRIBUTE: fold difference in affinity in comparison to original (fold)
// return numeric value only (unit: fold, not printed)

C5A (XPA23) light chain variable region A91T (antibody, V domains shown) VH: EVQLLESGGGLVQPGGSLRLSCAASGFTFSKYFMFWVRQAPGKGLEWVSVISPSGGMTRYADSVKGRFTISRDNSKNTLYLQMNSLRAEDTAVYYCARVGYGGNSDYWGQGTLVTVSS VL: DIQMTQSPSSVSASVGDRLTIICRASQDINRWLAWYQQTPGNAPKLLIHSATSLQSGVPSRFSGSGSGTDFTLTINSLQPEDFATYYCQQTDSFPLTFGGGTKVEIK: 0.67

Please report the recorded fold difference in affinity in comparison to original for C5A (XPA23) light chain variable region D92G (antibody, V domains shown) VH: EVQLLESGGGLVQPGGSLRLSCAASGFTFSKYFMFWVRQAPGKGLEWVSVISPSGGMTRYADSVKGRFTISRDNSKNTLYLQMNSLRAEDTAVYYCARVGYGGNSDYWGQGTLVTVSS VL: DIQMTQSPSSVSASVGDRLTIICRASQDINRWLAWYQQTPGNAPKLLIHSATSLQSGVPSRFSGSGSGTDFTLTINSLQPEDFATYYCQQAGSFPLTFGGGTKVEIK .
0.26

Which fold difference in affinity in comparison to original is listed for C5A (XPA23) light chain variable region A91L (antibody, V domains shown) VH: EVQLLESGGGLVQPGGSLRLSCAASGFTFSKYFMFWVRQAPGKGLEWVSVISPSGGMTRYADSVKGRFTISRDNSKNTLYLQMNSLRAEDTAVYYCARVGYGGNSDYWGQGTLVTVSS VL: DIQMTQSPSSVSASVGDRLTIICRASQDINRWLAWYQQTPGNAPKLLIHSATSLQSGVPSRFSGSGSGTDFTLTINSLQPEDFATYYCQQLDSFPLTFGGGTKVEIK ?
0.39
